The listing below reports pKi for compounds tested on Caspase-1 (Homo sapiens).
Sequence (P29466 120-297 limits assumed): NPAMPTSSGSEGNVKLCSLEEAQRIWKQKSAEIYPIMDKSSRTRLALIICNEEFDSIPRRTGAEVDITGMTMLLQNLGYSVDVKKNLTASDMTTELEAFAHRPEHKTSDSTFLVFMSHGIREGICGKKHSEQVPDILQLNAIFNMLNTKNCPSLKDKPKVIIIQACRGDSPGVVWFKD
Sequence (P29466 317-404 limits assumed): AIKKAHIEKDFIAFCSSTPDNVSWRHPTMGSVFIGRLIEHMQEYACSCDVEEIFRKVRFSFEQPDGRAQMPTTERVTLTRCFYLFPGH
Give bare numbers, as −log10 of the molar value.

Worked examples follow.
In [3]: df
Out[3]:
                                   compound  measure_name  endpoint_value
0  CC(C)[C@H](NC(=O)CCc1ccccc1)C(=O)N[C@@H](C)C(=O)N[C@@H](CC(=O)O)C(=O)CCCc1ccccc1           pKi            7.00
1  CC(C)[C@H](NC(=O)CCc1ccccc1)C(=O)N[C@@H](C)C(=O)N[C@@H](CC(=O)O)C(=O)Cc1ccccc1           pKi            5.51
2  CC(=O)N[C@@H](Cc1ccc(O)cc1)C(=O)N[C@H](C(=O)N[C@@H](C)C(=O)N[C@@H](CC(=O)O)C(=O)c1ccccc1)C(C)C (stereo in doubt)           pKi            5.00

Now, please, on to the next compound.
input: So what's the measured pKi for this one? CC(=O)N[C@@H](Cc1ccc(O)cc1)C(=O)N[C@H](C(=O)N[C@@H](C)C(=O)N[C@@H](CC(=O)O)C(=O)CCCCCc1ccccc1)C(C)C
output: 7.73

Reference source for all entries: ChEMBL document CHEMBL1127160
